Assay: Fungicide comparative solubility: tebuconazole dissolved in each solvent
Assay type: physicochemical
Conditions: room temperature; vials of 20, 30, 40 and 50 wt. % tebuconazole
observationType: maximum weight percentage of tebuconazole dissolved in each solvent (%)
Number only, in %; omit the unit.

Q: Fill in: maximum weight percentage of tebuconazole dissolved in each solvent of CCN1CCCCCC1=O [Solvent 2] is ___
Ans: 50

Q: Fill in: maximum weight percentage of tebuconazole dissolved in each solvent of CCCCCCCCCC(=O)N(C)C [Solvent 6] is ___
Ans: 30

Q: Fill in: maximum weight percentage of tebuconazole dissolved in each solvent of CN1CCCC1=O [Solvent 4] is ___
Ans: 50

Q: Fill in: maximum weight percentage of tebuconazole dissolved in each solvent of CN1CCCCCC1=O [Solvent 1] is ___
Ans: 50

Q: Fill in: maximum weight percentage of tebuconazole dissolved in each solvent of O=C1CCCCC1 [Solvent 9] is ___
Ans: 40

Q: Fill in: maximum weight percentage of tebuconazole dissolved in each solvent of CCCCN1CCCC1=O [Solvent 5] is ___
Ans: 40

Q: Fill in: maximum weight percentage of tebuconazole dissolved in each solvent of CCCCN1CCCCCC1=O [Solvent 3] is ___
Ans: 40

Origin of values: patent US20190075787A1
